For each of the compounds below, state its activation at 1 µM.
Test system: T cells / MDSCs
Test: Promotion of T cell proliferation in a co-culture model of MDSCs and T cells
Format: cell-based, mouse
Settings: Mus musculus, T-cell, 12 h, read-out: T-cell proliferation rate (%), 1 μM, MDSCs treated 12 hours, co-culture of MDSCs and T cells, compared to the control group

Sample records with activation at 1 µM:
{"COMPOUND": "CCC(=O)O[C@]1(C)CC[C@@]23C[C@]2(C)CC[C@@H]2[C@H](CC(=O)[C@H]2CN(C)C)[C@H]31 [Compound 63]", "RECORDED METRIC": "activation at 1 µM", "MEASURED VALUE": "0 to 20%"}
{"COMPOUND": "C=C1C(=O)O[C@H]2[C@H]1CCC(C)=C1CC[C@@](C)(OC(=O)NCCCOC)[C@@H]12 [Compound 75]", "RECORDED METRIC": "activation at 1 µM", "MEASURED VALUE": "20 to 40%"}
{"COMPOUND": "C=C1C(=O)O[C@H]2[C@H]1CCC(C)=C1CC[C@@](C)(OC(=O)N3CCN(C)CC3)[C@@H]12 [Compound 85]", "RECORDED METRIC": "activation at 1 µM", "MEASURED VALUE": "0 to 20%"}
{"COMPOUND": "C=C1C(=O)O[C@H]2[C@H]1CCC(C)=C1CC[C@@](C)(OC(=O)N3CCN(CC)CC3)[C@@H]12 [Compound 86]", "RECORDED METRIC": "activation at 1 µM", "MEASURED VALUE": "20 to 40%"}
{"COMPOUND": "C=C1C(=O)O[C@H]2[C@H]1CCC(C)=C1CC[C@@](C)(OC(=O)NCC(C)C)[C@@H]12 [Compound 88]", "RECORDED METRIC": "activation at 1 µM", "MEASURED VALUE": "20 to 40%"}

Give me activation at 1 µM for each of these compounds, listed below.
1. C=C1C(=O)O[C@@H]2[C@@H]3[C@]4(CC[C@@]3(C)O)C[C@]4(C)CC[C@@H]12 [Compound 1]
2. C=C1C(=O)O[C@H]2[C@H]1CCC(C)=C1CC[C@@](C)(OC(=O)N3CCOCC3)[C@@H]12 [Compound 87]

["> 40%", "> 40%"]

---

For each of the compounds below, state its Release rate (conversion to Compound 1).
Assay: Conversion (release) of prodrug salts to parent compound in HEPES buffer pH 7.4
Assay type: in vitro ADME
Settings: HEPES pH 7.4, 37 °C, 4 h; 240 min
Method: Pharmaceutically acceptable salts of guaiane-type sesquiterpene lactone derivatives were selected and evaluated for their conversion rates to Compound 1 and Compound 83 in plasma and HEPES buffer, with results shown in Tables 2-1, 2-2, 3-1, and 3-2. Experimental Method: Preparation of HEPES 7.4 Solution: Dissolve 1.6 g NaCl, 0.074 g KCl, 0.027 g Na2HPO4, 0.2 g glucose, and 1 g 4-(2-Hydroxyethyl)piperazine-1-ethanesulfonic acid (HEPES) solution in 90 mL distilled water. […]
Numbers only, in %.

{"COMPOUND": "CN(C)C[C@@H]1C(=O)O[C@H]2[C@H]1CC[C@@]1(C)C[C@]13CC[C@@](C)(O)[C@H]23 [Compound 40]", "RECORDED METRIC": "Release rate (conversion to Compound 1)", "QUANTITY UNIT": "%", "MEASURED VALUE": 26.2}

Give me Release rate (conversion to Compound 1) for each of these compounds, listed below.
1. CN(C)C[C@@H]1C(=O)O[C@H]2[C@H]1CC[C@@]1(C)C[C@]13CC[C@@](C)(O)[C@H]23 [Compound 20]
2. CN(C)C[C@@H]1C(=O)O[C@H]2[C@H]1CC[C@@]1(C)C[C@]13CC[C@@](C)(O)[C@H]23 [Compound 21]
3. CN(C)C[C@@H]1C(=O)O[C@H]2[C@H]1CC[C@@]1(C)C[C@]13CC[C@@](C)(O)[C@H]23 [Compound 41]
4. CN(C)C[C@@H]1C(=O)O[C@H]2[C@H]1CC[C@@]1(C)C[C@]13CC[C@@](C)(O)[C@H]23 [Compound 42]

1: 21.7; 2: 18.1; 3: 27.3; 4: 25.2
